biological target: 5-HT2A (Homo sapiens (Human), UniProt P28223); assay: Radioligand binding assay, [^3H]5-HT competition, 5-HT2A; details: [^3H]5-HT radioligand, membranes of HEK293 cells expressing recombinant 5-HT2A; Ki from IC50 by Cheng-Prusoff; read-out: 5-HT2A serotonin binding Ki value
Sequence (P28223 whole entry): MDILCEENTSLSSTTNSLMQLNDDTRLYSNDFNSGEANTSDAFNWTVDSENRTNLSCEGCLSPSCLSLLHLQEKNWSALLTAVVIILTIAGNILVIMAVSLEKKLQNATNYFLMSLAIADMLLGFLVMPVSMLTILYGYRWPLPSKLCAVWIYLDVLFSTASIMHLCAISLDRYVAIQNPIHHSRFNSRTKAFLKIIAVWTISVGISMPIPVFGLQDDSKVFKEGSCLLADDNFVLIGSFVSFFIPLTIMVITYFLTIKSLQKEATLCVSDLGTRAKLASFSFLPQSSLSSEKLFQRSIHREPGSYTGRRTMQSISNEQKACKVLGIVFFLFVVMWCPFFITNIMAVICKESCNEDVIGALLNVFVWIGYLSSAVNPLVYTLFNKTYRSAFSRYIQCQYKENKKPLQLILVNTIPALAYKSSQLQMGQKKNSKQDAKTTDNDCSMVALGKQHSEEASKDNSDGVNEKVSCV
Measured Ki values are reported for all entries that follow.
Reply with just the number (in nM).

INSERT INTO results (compound, measured_on, measured) VALUES
  ('Cc1ncnc(C)c1-c1cc(NC(=O)C2(c3ccccc3)CC2)ccc1OCCN1CCCC1', '5-HT2A (Homo sapiens (Human), UniProt P28223)', 6.34),
  ('Cc1ncnc(C)c1-c1cc(NC(=O)C2CC2)ccc1OC[C@H]1CCCCN1', '5-HT2A (Homo sapiens (Human), UniProt P28223)', 9.41),
  ('Cc1ncnc(C)c1-c1cc(NC(=O)C(C)c2ccccc2)ccc1OCCN1CCCC1 (stereo not shown)', '5-HT2A (Homo sapiens (Human), UniProt P28223)', 9.53),
  ('Cc1ncnc(C)c1-c1cc(NC(=O)[C@@H]2C[C@@H]2F)ccc1OCCN1CCOCC1', '5-HT2A (Homo sapiens (Human), UniProt P28223)', 15.2),
  ('Cc1ncnc(C)c1-c1cc(NC(=O)c2c(F)cnn2C)ccc1OCCN1CCC1', '5-HT2A (Homo sapiens (Human), UniProt P28223)', 4.98),
  ('Cc1ncnc(C)c1-c1cc(NC(=O)C2(F)CC2)ccc1OCCN1C[C@@H]2C[C@H]1CO2', '5-HT2A (Homo sapiens (Human), UniProt P28223)', 8.81),
  ('Cc1ncnc(C)c1-c1cc(NC(=O)c2ccccc2)ccc1OCCN1C[C@@H]2C[C@H]1CO2', '5-HT2A (Homo sapiens (Human), UniProt P28223)', 5.54),
  ('Cc1ncnc(C)c1-c1cc(NC(=O)C2CC2)ccc1OCCN1CCC2(CCC(=O)O2)CC1', '5-HT2A (Homo sapiens (Human), UniProt P28223)', 12.6);

Ask | State the recorded Ki for this entry: `Cc1ncnc(C)c1-c1cc(NC(=O)C2CC2)ccc1OCCN1CCC2(CCOC2=O)CC1`
Reply | 43.1

Ask | State the recorded Ki for this entry: `Cc1ncnc(C)c1-c1cc(NC(=O)C2CC2)ccc1OCCN1CCCC1`
Reply | 4.3

Ask | State the recorded Ki for this entry: `Cc1ncnc(C)c1-c1cc(NC(=O)c2ccnn2C)ccc1OCCN1CCOCC1`
Reply | 13

Ask | State the recorded Ki for this entry: `Cc1ncnc(C)c1-c1cc(NC(=O)CCc2cncs2)ccc1OCCN1CCCC1`
Reply | 14.8

Ask | State the recorded Ki for this entry: `Cc1ncnc(C)c1-c1cc(NC(=O)Cc2cncc(F)c2)ccc1OCCN1CCC1`
Reply | 5.42

Ask | State the recorded Ki for this entry: `Cc1ncnc(C)c1-c1cc(NC(=O)Cc2cc(C)n(C)n2)ccc1OCCN1CCCC1`
Reply | 692

Ask | State the recorded Ki for this entry: `CC(=N)NCCOc1ccc(NC(=O)C2CC2)cc1-c1c(C)ncnc1C`
Reply | 52.6

Ask | State the recorded Ki for this entry: `Cc1ncnc(C)c1-c1cc(NC(=O)C2CC2)ccc1OCCN1CCC2(CC1)CC(=O)N2`
Reply | 66.6

Ask | State the recorded Ki for this entry: `Cc1ncncc1-c1cc(NC(=O)C2CC2)ccc1OCCN1CCOCC1`
Reply | 25.3

Ask | State the recorded Ki for this entry: `Cc1ncnc(C)c1-c1cc(N(C)C(=O)C2CC2)ccc1OCCN1CCCC1`
Reply | 65800

Ask | State the recorded Ki for this entry: `COC1(C(=O)Nc2ccc(OCCN3CCCC3)c(-c3c(C)ncnc3C)c2)CC1`
Reply | 6.51

Ask | State the recorded Ki for this entry: `Cc1ncnc(C)c1-c1cc(NC(=O)c2ccccc2)ccc1OCCN1CCC1`
Reply | 3.28

Ask | State the recorded Ki for this entry: `Cc1ncnc(C)c1-c1cc(NC(=O)c2ccccc2)ccc1OCCN1CC(O)C1`
Reply | 11.2

Ask | State the recorded Ki for this entry: `Cc1ncnc(C)c1-c1cc(NC(=O)C2CC2)ccc1OCCN1CCC(CC(=O)O)CC1`
Reply | 196

Ask | State the recorded Ki for this entry: `Cc1ncnc(C)c1-c1cc(NC(=O)C2CC2)ccc1OCCN1CCOCC1`
Reply | 5.25

Ask | State the recorded Ki for this entry: `Cc1ncsc1C(=O)Nc1ccc(OCCN2CCC2)c(-c2c(C)ncnc2C)c1`
Reply | 2.65
